Reference source for all entries: PubChem BioAssay

I'd be grateful if you could share measured inhibition for these entries.
- test: inhibitors of TNFa-induced NFkB p65 translocation, primary screen, imaging, HUVEC, MLSMR starter and 10KST1 sets (AID 438);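 further: compound added about 3h40 before a 20 min TNFalpha stimulation; signal is the nuclear over cytoplasmic p65 intensity ratio per well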
- conditions: HUVEC TNFa-induced p65 nuclear translocation; at 2 µM, hits give high values, 0% TNFa-plus-vehicle, 100% no-TNFa wells
Hi! Could you send only the number? It should be in %, unit omitted.

Tell me the measured inhibition of Cc1cc(C(=O)CSc2nnc(-c3ccccc3)n2C)c(C)n1C , please.
4.4

Tell me the measured inhibition of CC(=O)Nc1cc(NC(C)=O)cc(C(=O)OCC(=O)N2CC(C)OC(C)C2)c1 (stereo unspecified) , please.
-3.9

Tell me the measured inhibition of CC(C)(C)NC(=O)COC(=O)c1snc(C(=O)NC2CCCCC2)c1N , please.
13.3

Tell me the measured inhibition of O=C(CN1C(=O)CSC1=O)Nc1ccc(N2CCOCC2)cc1 , please.
-1

Tell me the measured inhibition of COc1ccc(CNC(=O)C(c2ccco2)N(Cc2cccs2)C(=O)Cc2cccs2)cc1 (stereo unspecified) , please.
9.5

Tell me the measured inhibition of COc1ccc(-n2c(COc3ccccc3)nnc2SCc2ccc(C#N)cc2)cc1 , please.
-7.7

Tell me the measured inhibition of COc1ccc(C(=O)COC(=O)CCn2nnc(-c3cccs3)n2)cc1 , please.
2.2

Tell me the measured inhibition of CNC(=O)c1ccc2nc(NC(C)=O)sc2c1 , please.
-10.3

Tell me the measured inhibition of NC(=O)c1c(NC(=O)Cc2cccs2)sc2c1CCC2 , please.
-17.1

Tell me the measured inhibition of Cc1ccc(N(C(=O)c2ccncc2)C2C=CS(=O)(=O)C2)cc1 (stereo unspecified) , please.
-4

Tell me the measured inhibition of Cc1cc(NS(=O)(=O)c2ccc(NC(=O)COc3ccc(Cl)cc3)cc2)no1 , please.
0.4

----------
- target_system: Muscarinic acetylcholine receptor M4 (Homo sapiens) (UniProt P08173)
- Sequence (P08173 whole entry, looked up): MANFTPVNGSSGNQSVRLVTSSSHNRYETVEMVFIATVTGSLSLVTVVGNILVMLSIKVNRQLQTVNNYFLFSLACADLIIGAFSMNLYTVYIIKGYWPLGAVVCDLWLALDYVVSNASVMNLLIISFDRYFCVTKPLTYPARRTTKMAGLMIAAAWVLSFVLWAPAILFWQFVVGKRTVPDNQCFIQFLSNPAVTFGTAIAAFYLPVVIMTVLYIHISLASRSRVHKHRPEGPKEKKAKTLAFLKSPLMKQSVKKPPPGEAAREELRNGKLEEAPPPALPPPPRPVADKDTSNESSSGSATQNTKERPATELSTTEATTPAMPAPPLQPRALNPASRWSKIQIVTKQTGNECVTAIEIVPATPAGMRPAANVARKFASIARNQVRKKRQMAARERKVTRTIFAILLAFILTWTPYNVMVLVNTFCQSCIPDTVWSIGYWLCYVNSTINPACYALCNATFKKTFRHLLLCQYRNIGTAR
- test: M4-linked GIRK flux change, two-sided – cell-based, HEK293 M4/GIRK, thallium flux, BTC-AM, M4 allosteric agonist project, primary screen (AID 625);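 further: thallium influx through GIRK channels coupled to M4 in HEK293 cells with BTC-AM dye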
- conditions: at 10 µM, actives lie on both sides
fluorescence slope vs 0.006: at or above is Met, below is Not met.

Please check the record COCCN(C(=O)Cn1nnc2ccccc21)C(C(=O)NC1CCCC1)c1cc(OC)ccc1OC (stereo not drawn) and state if its fluorescence slope is at or above 0.006.
Not met

Please check the record Cc1ccc(S(=O)(=O)N(CC(=O)N2CCOCC2)CC(=O)N2CCOCC2)cc1 and state if its fluorescence slope is at or above 0.006.
Not met

Please check the record C=C(C)Cn1c(CCNC(=O)CC)nc2ccccc21 and state if its fluorescence slope is at or above 0.006.
Not met

Please check the record CC(=O)c1c(NCCc2ccccc2)cc(C)oc1=O and state if its fluorescence slope is at or above 0.006.
Met

Please check the record Cc1nc(C)c(C(=O)OCC(=O)N2CCN(c3ccccc3)CC2)s1 and state if its fluorescence slope is at or above 0.006.
Met

Please check the record CCN(CC)C(=O)c1sc(NC(=O)c2ccco2)c(C#N)c1C and state if its fluorescence slope is at or above 0.006.
Not met

Please check the record CN1CCN(S(=O)(=O)c2ccc(Sc3nnc(-c4cccs4)n3-c3ccccc3)nc2)CC1 and state if its fluorescence slope is at or above 0.006.
Not met

Please check the record CC(C)[C@H](NC(=O)[C@@H]1CSCN1C(=O)OC(C)(C)C)C(=O)NCC1CCC(C(=O)O)CC1 (stereo partly drawn) and state if its fluorescence slope is at or above 0.006.
Not met

Please check the record Cc1cccc2cc(CN(Cc3nnnn3Cc3ccco3)C3CCCC3)c3nnnn3c12 and state if its fluorescence slope is at or above 0.006.
Not met

Please check the record COc1cc(NC(=O)C2CC(c3cccc(OC)c3OC)=NO2)cc(OC)c1OC (stereo not drawn) and state if its fluorescence slope is at or above 0.006.
Not met

Please check the record NCC(O)COc1ccc2c(c1)OCO2 (stereo not drawn) and state if its fluorescence slope is at or above 0.006.
Not met

Please check the record O=C(Nc1ccccc1C(=O)NCC1CCCO1)c1ccco1 (stereo not drawn) and state if its fluorescence slope is at or above 0.006.
Not met

----------
- target_system: Muscarinic acetylcholine receptor M4 (Homo sapiens) (UniProt P08173)
- test: M4-linked GIRK flux change, two-sided – cell-based, HEK293 M4/GIRK, thallium flux, BTC-AM, M4 allosteric agonist project, primary screen (AID 625);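 further: thallium influx through GIRK channels coupled to M4 in HEK293 cells with BTC-AM dye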
- conditions: at 10 µM, actives lie on both sides
outcome_measure: fluorescence slope
Please reply with the value in numeric form only.

What value of fluorescence slope on Muscarinic acetylcholine receptor M4 (Homo sapiens) (UniProt P08173) does COc1cccc(C(=O)Nc2cc(NC(=O)c3ccco3)ccc2OC)c1 have?
0.00583

What value of fluorescence slope on Muscarinic acetylcholine receptor M4 (Homo sapiens) (UniProt P08173) does CCOc1ccccc1NC(=O)C1CCCN1C(=O)OCc1ccccc1 (configuration not stated) have?
0.0063

What value of fluorescence slope on Muscarinic acetylcholine receptor M4 (Homo sapiens) (UniProt P08173) does COc1ccc(Br)cc1S(=O)(=O)N1CCOCC1 have?
0.00557

What value of fluorescence slope on Muscarinic acetylcholine receptor M4 (Homo sapiens) (UniProt P08173) does CCOC(=O)CSc1nnc(CNC(=O)c2ccc(S(=O)(=O)N3CCCC3)cc2)n1C have?
0.00697

What value of fluorescence slope on Muscarinic acetylcholine receptor M4 (Homo sapiens) (UniProt P08173) does CCOc1ccc2nc(SCC#N)c(C#N)cc2c1 have?
0.00501

What value of fluorescence slope on Muscarinic acetylcholine receptor M4 (Homo sapiens) (UniProt P08173) does COc1ccc(-c2noc(CCC(=O)Nc3nc4ccccc4s3)n2)cc1 have?
0.0103

What value of fluorescence slope on Muscarinic acetylcholine receptor M4 (Homo sapiens) (UniProt P08173) does CCOC(=O)C1C(=O)OC(C)(C)C1C(C)C(=O)c1ccc(OC)cc1 (configuration not stated) have?
0.00448

What value of fluorescence slope on Muscarinic acetylcholine receptor M4 (Homo sapiens) (UniProt P08173) does Cc1nn(Cc2ccccc2Cl)c(C)c1NC(=O)C1C2CCC(O2)C1C(=O)O (configuration not stated) have?
0.00475

What value of fluorescence slope on Muscarinic acetylcholine receptor M4 (Homo sapiens) (UniProt P08173) does CCOC(=O)N1CCN(C(=O)CCc2c(C)nc3c(c(C)nn3-c3ccc(C)c(C)c3)c2C)CC1 have?
0.00541

What value of fluorescence slope on Muscarinic acetylcholine receptor M4 (Homo sapiens) (UniProt P08173) does COc1ccc(/C=N/n2c(=O)[nH]c3c([nH]c4ccc(C)cc43)c2=O)cc1CN1CCOCC1 have?
0.00369

What value of fluorescence slope on Muscarinic acetylcholine receptor M4 (Homo sapiens) (UniProt P08173) does Cc1cc(NC(=O)c2ccc(Cl)cc2)no1 have?
0.00496

What value of fluorescence slope on Muscarinic acetylcholine receptor M4 (Homo sapiens) (UniProt P08173) does Nc1ccc(Sc2nnnn2-c2ccccc2)c(Cl)c1 have?
0.00613

What value of fluorescence slope on Muscarinic acetylcholine receptor M4 (Homo sapiens) (UniProt P08173) does Cc1ccccc1-c1nc(CN2CCC(C(=O)NCCCN3CCCC3)CC2)c(C)o1 have?
0.00435

What value of fluorescence slope on Muscarinic acetylcholine receptor M4 (Homo sapiens) (UniProt P08173) does COc1ccc(Cc2nn3c(-c4cc(OC)c(OC)c(OC)c4)nnc3s2)cc1 have?
0.00585

What value of fluorescence slope on Muscarinic acetylcholine receptor M4 (Homo sapiens) (UniProt P08173) does O=C(CN1C(=O)CCSc2ccccc21)Nc1ccc(F)cc1 have?
0.00664

What value of fluorescence slope on Muscarinic acetylcholine receptor M4 (Homo sapiens) (UniProt P08173) does CCCCNS(=O)(=O)c1ccc(OC)c2ncccc12 have?
0.00627

What value of fluorescence slope on Muscarinic acetylcholine receptor M4 (Homo sapiens) (UniProt P08173) does CCCN(CCO)Cc1cccc(Br)c1 have?
0.00547

----------
- test: reduction of polyQ htt aggregates in cells – imaging, exon1htt(103Q)mCFP cells, high-content imaging, primary screen (AID 483);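 further: compound exposure lasted 3 days before fixation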
- conditions: exon1htt(103Q)mCFP cell line, aggregate imaging, at 2 µM; hits give high values
I'd be grateful if you could share measured inhibition of aggregation for these entries.
Hi! Could you send only the number? It should be in %, unit omitted.

Tell me the measured inhibition of aggregation of CCCC(CCC)n1[nH]c(=O)c2c(C)cc(C)nc21 , please.
7.5

Tell me the measured inhibition of aggregation of CC(NS(=O)(=O)c1ccc(OCC(=O)N2CCOCC2)c(Cl)c1)c1ccccc1 (centres undefined) , please.
0.2

Tell me the measured inhibition of aggregation of COCCN1C=C(C(=O)OC)C(c2cc3c(cc2Br)OCO3)C(C(=O)OC)=C1 , please.
1.1

Tell me the measured inhibition of aggregation of COCCNC(=O)C(c1ccc(C)o1)N(C(=O)c1snc(C(N)=O)c1N)c1ccc(C)cc1 (centres undefined) , please.
19.7

Tell me the measured inhibition of aggregation of O=C(C(Cc1ccccc1)n1cccc1)N1CCCCCC1 (centres undefined) , please.
8.2

Tell me the measured inhibition of aggregation of COc1ccccc1C1N(c2ccc(F)cc2)C(=O)C2CCCN21 (centres undefined) , please.
7.1

Tell me the measured inhibition of aggregation of O=C(NCCCN1CCN(CCCNC(=O)c2ccc(F)cc2)CC1)c1ccc(F)cc1 , please.
-1.8

Tell me the measured inhibition of aggregation of CC(=O)Nc1ccc(NC(=O)C(C)Oc2ccccc2F)cc1 (centres undefined) , please.
9.4

Tell me the measured inhibition of aggregation of COc1ccc2cc(C#N)c(NC(C)C)nc2c1 , please.
-25.6

Tell me the measured inhibition of aggregation of Cc1cc(NC(=O)CSc2nnc(COc3cccc(C)c3C)n2Cc2ccco2)no1 , please.
7.4

Tell me the measured inhibition of aggregation of COc1ccccc1CN1C(=O)CCC1(C)C(=O)NC1CCCCCC1 (centres undefined) , please.
14.8

Tell me the measured inhibition of aggregation of COc1ccc(C2C=C(c3ccccc3)Nc3ncnn32)cc1 (centres undefined) , please.
-12.6

Tell me the measured inhibition of aggregation of CCCCN(CCCC)C(=O)CN(C)S(=O)(=O)c1ccc2c(c1)n(C)c(=O)c(=O)n2C , please.
-10.5

Tell me the measured inhibition of aggregation of O=S(=O)(NCCc1ccncc1)c1cc(Br)ccc1F , please.
-9.7

Tell me the measured inhibition of aggregation of Fc1ccc(-c2nnc3ccc(N4CCCC4)nn23)cc1 , please.
-1

Tell me the measured inhibition of aggregation of CN(C)c1ccc(C=Nc2ccc(N(C)C)cc2)cc1 , please.
-8.7

Tell me the measured inhibition of aggregation of Cn1nnnc1SCC(=O)N1CCN(c2ccccc2)CC1 , please.
7

Tell me the measured inhibition of aggregation of CC1=C(C(=O)NCc2ccccn2)C2(CCC(C)CC2)OC1=O (centres undefined) , please.
16.1

Tell me the measured inhibition of aggregation of COCCNC(=O)c1cc2c(-c3ccccc3F)nn(C)c2s1 , please.
-28.5

Tell me the measured inhibition of aggregation of O=P(CCNCc1ccco1)(c1ccccc1)c1ccccc1 , please.
-14.2

Tell me the measured inhibition of aggregation of COc1cc(C)nc(OCCNC(=O)COc2ccc(Cl)cc2C)n1 , please.
-16

Tell me the measured inhibition of aggregation of CCCCn1c(CN2CCN(c3cccc(Cl)c3)CC2)nc2c1c(=O)n(C)c(=O)n2C , please.
10.6

Tell me the measured inhibition of aggregation of COc1ccccc1CC(=O)Nc1ccc(OC)c(OC)c1 , please.
17.1

Tell me the measured inhibition of aggregation of COc1ccc(S(=O)(=O)N(C)CC(=O)N2CCCCC2)cc1Cl , please.
4.2

Tell me the measured inhibition of aggregation of C=CCOC(=O)CC(NC(=O)c1ccccc1)c1ccccc1 (centres undefined) , please.
-15.9

Tell me the measured inhibition of aggregation of CCN(Cc1nc2cc(OC)c(OC)cc2c(=O)[nH]1)C(=O)c1ccc(S(=O)(=O)N(C)C)cc1 , please.
-0.9

Tell me the measured inhibition of aggregation of Cc1nc2ccccc2c(=O)n1NC(=O)Nc1ccccc1 , please.
17.7

Tell me the measured inhibition of aggregation of Cc1ccccc1CN1CCN(C(=O)c2cccc(F)c2)CC1 , please.
14.5

Tell me the measured inhibition of aggregation of CCN(CC)S(=O)(=O)c1ccc2c(c1)nc(SCn1nnc3ccccc3c1=O)n2CC , please.
6.8

Tell me the measured inhibition of aggregation of CN(C)C(=O)CSc1nnc2sc3ccccc3n12 , please.
-15.4

Tell me the measured inhibition of aggregation of Cc1ccc(OCC2Cn3c(nc4c3c(=O)n(C)c(=O)n4C)O2)cc1 (centres undefined) , please.
22.4

Tell me the measured inhibition of aggregation of CCOC(=O)c1cc(-c2ccco2)nc2c1c(C)nn2CCC#N , please.
-3.4

Tell me the measured inhibition of aggregation of CCN(C(=O)c1ccnc(C(C)(C)C)c1)c1ccccc1 , please.
-6.8

Tell me the measured inhibition of aggregation of COc1cccc(C(c2nnnn2Cc2ccccc2)N2CCN(C(=O)c3ccco3)CC2)c1OC (centres undefined) , please.
5

Tell me the measured inhibition of aggregation of Cc1n[nH]c(C)c1S(=O)(=O)N1CCCCCC1 , please.
-0.3

Tell me the measured inhibition of aggregation of COc1ccc(C(=O)CSc2nc(C)cc(=O)[nH]2)cc1 , please.
13.9

Tell me the measured inhibition of aggregation of COc1ccc(OC)c(C(=O)c2ccc(C(=O)O)cc2)c1 , please.
-5.3

Tell me the measured inhibition of aggregation of CN(C)c1ccc(C(=O)OCC(=O)NC2CCCCC2)cc1 , please.
4.3

Tell me the measured inhibition of aggregation of O=C(O)c1ccc(C2SCC(=O)N2Cc2ccccc2)cc1 (centres undefined) , please.
15.9

Tell me the measured inhibition of aggregation of CN1CCN(c2nc(-c3ccncc3)nc3ccccc23)CC1 , please.
-19.7

Tell me the measured inhibition of aggregation of O=C(OCC(=O)c1cccs1)C1=COCCO1 , please.
-9.8

Tell me the measured inhibition of aggregation of O=C(CSc1nc2ccccc2c(=O)n1CCC(=O)N1CCCCC1)NCc1ccccc1 , please.
1

Tell me the measured inhibition of aggregation of COc1cc(C(=O)Nc2cc(-c3ccccc3)[nH]n2)cc(OC)c1OC , please.
15.9

Tell me the measured inhibition of aggregation of CCN(CC)S(=O)(=O)c1cccc(-c2nnc(SCCOc3ccccc3C)o2)c1 , please.
-13.5
